experiment: galactose survival enhancers in mitochondrial complex I cybrids – cell-based, galactose medium, ATP luminescence, primary screen (AID 1645843); settings: complex I mutant cybrid cells, 72 h, hits give high values;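 note: positive z means more ATP and so rescue of galactose-driven cybrid death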
readout: z-score
Could you keep your reply to the number by itself?

| molecule | z-score |
| --- | --- |
| COc1ccc(CCNC2CCc3c(c(C(=O)N(C)C)nn3CC3CCCCC3)C2)cc1 (stereo not given) | -1.19 |
| COC(=O)CCN1CC(OCc2ccncc2)CN(C(=O)c2csc(SC)n2)CC1=O (stereo not given) | 0.42 |
| COc1cc(F)c(-c2nc3c(cnn3Cc3cccs3)[nH]2)c(F)c1 | 2.49 |
| CN1CCCc2cc(C(=O)N3CC(=O)N(Cc4ccccc4)CC(OCc4ccccn4)C3)ccc21 (stereo not given) | 0.21 |
| CSc1nc(N)c2ncn([C@@H]3O[C@H](COP(=O)(O)OP(=O)(O)OP(=O)(O)O)[C@H](O)C3O)c2n1 (stereo not given in full) | 1.04 |

Q) Returns the measured z-score for the input molecule. Input: CC(C)CNC(=O)[C@@H]1C[C@H](CN2CCOCC2)CN(Cc2nccn2C)C1
A) 0.2

Q) z-score lookup needed for O=C([C@@H]1C[C@H](CN2CCOCC2)CN(Cc2ccccc2)C1)N1CCCC1 , thanks.
A) -0.6

Q) Please look up its z-score: CCCCn1nnnc1NC(=O)N1C2CCCCC1CCC2
A) 0.915

Q) Please look up its z-score: O=C(Cn1cc(-c2cncnc2)cn1)Nc1ccnn1Cc1ccco1
A) 1.12

Q) What z-score value was documented for this molecule, CC(N)(C(=O)O)c1ccc(C(=O)O)cc1 (stereo not given) ?
A) 0.615

Q) Given the molecule CN(Cc1nc(-c2ccccc2)cs1)C1CCc2c(c(C(=O)N3CCSCC3)nn2C)C1 (stereo not given) , what is its reported z-score?
A) 0.7

Q) Would you mind telling me what z-score value was observed for COc1cc(CC2COC(=O)C2Cc2ccc(O)c(OC)c2)ccc1O (stereo not given) ?
A) -0.07

Q) GET /values?readout=z-score&item= O=C(Nc1ccccc1Cl)N[C@H]1C[C@H]2C(=O)N[C@H](Cc3ccc(O)cc3)C(=O)N2C1
A) -0.455

Q) Consider the molecule CC(=O)N1CCN(C(=O)c2c(-c3ccccc3)nn(-c3ccccc3)c2C)CC1 and give its measured z-score.
A) -0.38

Q) # input molecule: CCOC(=O)c1ccc(N2CCC(c3ccccc3F)C2)nc1 (stereo not given) ; wanted: its z-score
A) -0.015

###

test: galactose survival enhancers in mitochondrial complex I cybrids – cell-based, galactose medium, ATP luminescence, primary screen (AID 1645843); settings: complex I mutant cybrid cells, 72 h, hits give high values;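 note: positive z means more ATP and so rescue of galactose-driven cybrid death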
Below, each entry is listed alongside its reported z-score.
// print number alone

Q) Fill blank: measured z-score of the compound C[N+](C)(C)CC=O is ____.
A) 0.245

Q) For O=[N+]([O-])c1ccc(CNc2nc(NCc3cccc(C(F)(F)F)c3)nc3nc[nH]c23)cc1 , what is its reported z-score?
A) -0.05

Q) Please look up its z-score: Cc1ccc(S(=O)(=O)NCCCOC(=O)Nc2ccncc2)cc1
A) -0.675

Q) # z-score lookup, item CC(C)Cc1cn(C2CCN(C3Cc4ccccc4C3)CC2)nn1
A) -0.99

Q) Looking for the measured z-score of O=c1cc(-c2ccncc2)nc(-c2cccc(CN3CCCC(CO)C3)c2)[nH]1 (configuration not stated) , can you help?
A) 0.08

###

Items are presented alongside their recorded fold change.
test: viability loss with induced miR-34 in A549 – imaging, A549 dox-inducible miR-34, nuclei and caspase counts, primary screen (AID 1347080); details: A549 miR-34 inducible, Hoechst nuclei count, 48 h; hits give low values; cell number ratio, induced over uninduced
// print number alone

Reference set (5 entries):
| compound | fold change |
| --- | --- |
| COc1ccc(CC2c3cc(OC)c(OC)cc3CC[N@+]2(C)CCC(=O)OCCCCCOC(=O)CC[N@@+]2(C)CCc3cc(OC)c(OC)cc3C2Cc2ccc(OC)c(OC)c2)cc1OC (stereo partly specified) | 0.844 |
| O=C1CCC(c2ccc(-n3ccnc3)cc2)=NN1 | 1.07 |
| COc1c2ccoc2nc2c(OC)c(OC[C@@H](O)C(C)(C)O)ccc12 | 0.816 |
| O=C(O)COc1cccc2ccccc12 | 0.847 |
| CC(C)OC(=O)CCCC=CCC1C(O)CC(O)C1CCC(O)CCc1ccccc1 (stereo unspecified) | 1 |

Consider the additional compound presented here.
Q) Entry Cc1ccc(Cn2nccc2NC(=O)Cn2cc(-c3ccc(F)cc3)cn2)o1 : reported fold change = ?
A) 0.895

###

# reported z-score; entries follow
assay: galactose survival enhancers in mitochondrial complex I cybrids – cell-based, galactose medium, ATP luminescence, primary screen (AID 1645843); settings: complex I mutant cybrid cells, 72 h, hits give high values;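 note: positive z means more ATP and so rescue of galactose-driven cybrid death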
Returns: the value as a bare number; no unit string appended.

Some compounds with known z-score results, for comparison:
| compound | readout | readout_value |
| --- | --- | --- |
| CCCCc1ncc(CN2CCc3c(cc(-c4ccncc4)c(=O)n3C/C=C/c3ccccc3)C2)[nH]1 | z-score | -0.41 |
| CCCCCC(=O)N1CCC(n2cc(C3CCCCC3)nn2)CC1 | z-score | -0.415 |
| Cc1nsc(NC(=O)NCc2cc(Cl)ccc2Cl)n1 | z-score | -1.1 |
| Cc1cccc2ncn(C3CC(C)(C)NC(C)(C)C3)c(=O)c12 | z-score | -0.515 |
| Nc1ncnc2c1c(-c1ccc(Oc3ccccc3)cc1)cn2C1CCCC1 | z-score | -1.02 |
| CCCc1cn(CC2CCN(C(=O)[C@@H](N)[C@@H](C)CC)CC2)nn1 | z-score | -0.24 |

Q) Report z-score for CCN(CC)C(=O)c1c(NC(=O)c2cccs2)sc2c1CCCC2 please.
A) -0.49

Q) Would you mind telling me what z-score value was observed for Cn1ncc(NC(=O)CCc2cn3ccccc3n2)n1 ?
A) 0.67

###

assay: viability loss with induced miR-34 in A549 – imaging, A549 dox-inducible miR-34, nuclei and caspase counts, primary screen (AID 1347080); details: A549 miR-34 inducible, Hoechst nuclei count, 48 h; hits give low values; cell number ratio, induced over uninduced
Activity calls are given as the source filed them.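 How the source made its calls: active means compounds whose cell count with miR-34 switched on is under 0.7 times the count with it off; inactive means the rest.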
Parameter: fold change. Scope: all listed entries.

Sample records with fold change:
| smi | fold change |
| --- | --- |
| O=c1c2nccnc2ncn1Cc1scnc1-c1ccccc1 | 0.893 (inactive) |
| CC(=O)c1sc(Nc2ccccc2)nc1C | 0.911 (inactive) |
| CC1=C(/C=C/C(C)=C\C=C\C(C)=C\C(=O)O)C(C)(C)CCC1 | 0.906 (inactive) |

Next:
Q) Can you look up the measured fold change of CN(CCc1ccccn1)C(=O)c1ccc2sc(N)nc2c1 for me?
A) 0.88 (inactive)

###

experiment: chitosan synthesis blockers in C. neoformans – flow cytometry, Cibacron Brilliant Red staining (AID 1347148); conditions: Cryptococcus neoformans chitosan, hits give low values; at 10 µM unless noted;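 note: compound exposure lasted three days at 37 degrees C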
Calls of active or inactive are those of the source. No rule for the calls is given here.
Entries and their fold fluorescence

Examples with their reported fold fluorescence follow.
| molecule | fold fluorescence |
| --- | --- |
| CCCCCCCCCC(=O)OC[C@H](CO)OC(=O)CCCCCCCCC | 7.36 (inactive) |
| CCCCCCCCCCCCCCCC(=O)N[C@@H](COP(=O)(O)O)C(=O)O | 4.28 (inactive) |
| CCCCC/C=C\C/C=C\CC1OC1C/C=C\CCCC(=O)O (configuration not stated) | 5.26 [at 1 µM] (inactive) |
| N#C/C(=C\c1cc(Cl)cc(Cl)c1)c1cccnc1 | 4 [at 181.7 µM] (inactive) |
| CCCCC/C=C\C[C@H](O)/C=C/C=C/C=C\[C@H](O)CCCC(=O)O | 3.97 [at 1 µM] (inactive) |
| CCCCC[C@H](O)c1cccc(OCc2ccc3ccccc3n2)c1 | 5.53 (inactive) |

We next turn to a different molecule, shown below.
Q) Recorded fold fluorescence for CCCCC[C@@H](O)/C=C/[C@H]1[C@H](C/C=C\CCCC(=O)O)[C@H](O)C[C@@H]1O , please?
A) 3.65 (inactive)

###

Catalogue of z-score readings, one per entry.
assay: galactose survival enhancers in mitochondrial complex I cybrids – cell-based, galactose medium, ATP luminescence, primary screen (AID 1645843); conditions: complex I mutant cybrid cells, 72 h, hits give high values;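 note: positive z means more ATP and so rescue of galactose-driven cybrid death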
Lab note: record just the number, no unit beside it.

Previously resolved entries follow.
| smi | readout | readout_value |
| --- | --- | --- |
| Cn1c(=O)ccc2ccccc21 | z-score | 0.32 |
| Nc1nc2ccccc2c(=O)[nH]1 | z-score | 0.65 |
| Brc1c(Br)c(Br)c2[nH]cnc2c1Br | z-score | -1.17 |

Q) So what's the measured z-score for this one? CC(C)NS(=O)(=O)c1cc(NC2CCCCC2)cc(C(=O)NC2Cc3ccccc3C2)c1
A) -0.045

Q) Looking for the measured z-score of NC(=O)c1ccccc1-c1cccc2ccccc12 , can you help?
A) -0.38

Q) Return reported z-score; argument: CCCCn1c(=O)c2c(ncn2CC(C)=O)n(CCCC)c1=O
A) 0.875
